test: Plasma exposure (pharmacokinetics) of darunavir and efavirenz after oral administration of formulations; conditions: male, Sprague-Dawley, rat, plasma, po, 10 mg/kg, average plasma concentration, test animals (disclosed test formulation), at 1 hour, rats
Measured endpoint: concentration at 1 h

Item O=C1Nc2ccc(Cl)cc2[C@@](C#CC2CC2)(C(F)(F)F)O1 [efavirenz] has what recorded concentration at 1 h?
~133 ng/mL

====

experiment: Plasma exposure (pharmacokinetics) of darunavir and efavirenz after oral administration of formulations; details: male, Sprague-Dawley, rat, in vivo, po, 10 mg/kg, average plasma concentration, animals given the control formulation, at 2 hours, rats
Measured endpoint: concentration at 2 h

Item CC(C)CN(C[C@@H](O)[C@H](Cc1ccccc1)NC(=O)O[C@H]1CO[C@H]2OCC[C@H]21)S(=O)(=O)c1ccc(N)cc1 has what recorded concentration at 2 h?
~63 ng/mL

====

Test: Plasma exposure (pharmacokinetics) of darunavir and efavirenz after oral administration of formulations
Details: male, Sprague-Dawley, rat, in vivo, po, 10 mg/kg, average plasma concentration, test animals (disclosed test formulation), at 2 hours, rats
Procedure: In this study, the exposure and distribution of darunavir and efavirenz were evaluated following oral administration in male Sprague-Dawley rats. Four cohorts of 10 rats each were used in this study. […] Formulations were administered orally (PO) at 10 mg/kg of darunavir or efavirenz. […] Plasma, urine, feces, and brain tissue concentrations of the analytes were determined by LC-MS/MS. Plasma pharmacokinetic parameters were determined using WinNonlin (v8.0) software. […]
Measured endpoint: concentration at 2 h

Item CC(C)CN(C[C@@H](O)[C@H](Cc1ccccc1)NC(=O)O[C@H]1CO[C@H]2OCC[C@H]21)S(=O)(=O)c1ccc(N)cc1 has what recorded concentration at 2 h?
~153 ng/mL
